target: Human SST5 somatostatin receptor (SSTR5) (Homo sapiens, UniProt P35346); construct: expressed in transfected cells; host or cells: HEK-293 EBNA; assay: Filter plate assay for SST5 receptor, displacement of [125I]SST-14; type: binding; details: 0.5 uM
Sequence (P35346 whole entry): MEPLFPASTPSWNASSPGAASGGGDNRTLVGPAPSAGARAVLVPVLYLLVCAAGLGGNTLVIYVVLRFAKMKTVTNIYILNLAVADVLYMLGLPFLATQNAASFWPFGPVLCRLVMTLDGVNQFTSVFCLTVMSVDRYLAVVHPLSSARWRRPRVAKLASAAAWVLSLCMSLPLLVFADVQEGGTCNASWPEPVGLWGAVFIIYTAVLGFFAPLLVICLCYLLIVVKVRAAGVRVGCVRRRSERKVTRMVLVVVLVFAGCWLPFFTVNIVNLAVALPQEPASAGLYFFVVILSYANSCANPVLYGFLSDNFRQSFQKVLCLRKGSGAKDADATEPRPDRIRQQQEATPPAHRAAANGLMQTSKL
TEST READOUT: SSTR5 Inhib 0.5 uM % (inhibition of binding of SST-14 to SSTR5) (%)

Worked examples follow.
[[record]]
compound = "COC[C@H]1OC(OCc2ccc3ccccc3c2)[C@H](NC(=O)CCCN)[C@H](OCc2ccc(Cl)cc2)[C@@H]1O (some centres unmarked)"
unit_text = "%"
reported_value = 76

[[record]]
compound = "CO[C@H]1[C@H](O)[C@@H](COCc2ccc(-c3ccccc3)cc2)OC(OCc2ccc(-c3ccccc3)cc2)[C@@H]1NC(=O)CCCNC(=N)N (some centres unmarked)"
unit_text = "%"
reported_value = 20


[A] COC[C@H]1OC(OCc2ccc3ccccc3c2)[C@H](NC(=O)CCNC(=N)N)[C@@H](OCc2ccc3ccccc3c2)[C@@H]1O (some centres unmarked)
[B] COC[C@H]1OC(OCc2ccccc2)[C@H](NC(=O)CCN)[C@H](OCc2ccc(-c3ccccc3)cc2)[C@@H]1O (some centres unmarked)
*Q* Lab note: check whether A or B shows the higher recorded SSTR5 Inhib 0.5 uM % (inhibition of binding of SST-14 to SSTR5). Which one? Tell me its label.
*A* B

[A] CSC1O[C@H](COCc2ccc3ccccc3c2)[C@@H](O)[C@@H](OCc2ccccc2)[C@H]1NC(=O)CCN (some centres unmarked)
[B] CSC1O[C@H](COCc2ccccc2)[C@@H](O)[C@@H](OCc2ccc(Cl)cc2)[C@H]1NC(=O)CNC(=N)N (some centres unmarked)
[C] COC1C(O)C(COCc2ccc(-c3ccccc3)cc2)OC(OCc2ccc3ccccc3c2)C1NC(=O)CCNC(=N)N (centres unmarked)
*Q* # ascending order, key=SSTR5 Inhib 0.5 uM % (inhibition of binding of SST-14 to SSTR5) Please list the labels in the order you were asked to rank them.
*A* C, A, B
(C: 27%, A: 44%, B: 71%)

[1] COC[C@H]1OC(OCc2ccc3ccccc3c2)[C@H](NC(=O)CCCN)[C@@H](OCc2cccc(O)c2)[C@@H]1O (some centres unmarked) [Compound 146]
[2] COC1C(O)C(COCc2ccc3ccccc3c2)OC(OCc2ccc3ccccc3c2)C1NC(=O)CCCN (centres unmarked)
*Q* Lab note: check whether 1 or 2 shows the higher recorded SSTR5 Inhib 0.5 uM % (inhibition of binding of SST-14 to SSTR5). Which one? Tell me its label.
*A* 2

[1] CSC1O[C@H](COCc2ccccc2)[C@@H](O)[C@@H](OCc2ccc(-c3ccccc3)cc2)[C@H]1NC(=O)CCCNC(=N)N (some centres unmarked)
[2] COC[C@H]1OC(OCc2ccc(-c3ccccc3)cc2)[C@H](NC(=O)CCCNC(=N)N)[C@@H](OCc2ccc(-c3ccccc3)cc2)[C@@H]1O (some centres unmarked) [Compound 55]
*Q* I'm curious whether 1 or 2 has the smaller SSTR5 Inhib 0.5 uM % (inhibition of binding of SST-14 to SSTR5) number. Which is it? Which one? Tell me its label.
*A* 1

---

assay: In vivo pharmacokinetic evaluation after i.v. and p.o. administration to rats; set-up: species or system rat; settings: rat, plasma, iv, 2 mg/Kg, Rat 1, IV; read-out: t1/2 (converted)
TEST READOUT: half-life (h)
Respond numerically; units are h and should not be typed.

*Q* What value of half-life has been recorded for this entry: COC[C@H]1O[C@H](OCCc2ccccc2)[C@H](NC(=O)CCCN)[C@@H](OCc2ccc3ccccc3c2)[C@@H]1O
*A* 4.45

---

target: Human SST5 somatostatin receptor (SSTR5) (Homo sapiens); construct: expressed in transfected cells; host or cells: HEK-293 EBNA; experiment: Filter plate assay for SST5 receptor, displacement of [125I]SST-14; format: binding; details: 0.5 uM
TEST READOUT: SSTR5 Inhib 0.5 uM % (inhibition of binding of SST-14 to SSTR5) (%)

[1] CSC1O[C@H](COCc2ccc3ccccc3c2)[C@@H](O)[C@@H](OCc2ccc(Cl)cc2)[C@H]1NC(=O)CNC(=N)N (stereo partly shown)
[2] COC[C@H]1OC(OCc2ccc(Cl)cc2)[C@H](NC(=O)CCCN)[C@@H](OCc2ccc(Cl)cc2)[C@@H]1O (stereo partly shown)
[3] COC1C(O)C(COCc2ccc(-c3ccccc3)cc2)OC(OCc2ccc(-c3ccccc3)cc2)C1NC(=O)CCNC(=N)N (stereo not shown)
*Q* // sort listed items: SSTR5 Inhib 0.5 uM % (inhibition of binding of SST-14 to SSTR5) descending Please list the labels in the order you were asked to rank them.
*A* 2, 1, 3

---

target: Human SST5 somatostatin receptor (SSTR5) (Homo sapiens); construct: expressed in transfected cells; host or cells: HEK-293 EBNA; test: Filter plate assay for SST5 receptor, displacement of [125I]SST-14; assay type: binding; conditions: 10 uM
TEST READOUT: SSTR5 Inhib 10 uM % (inhibition of binding of SST-14 to SSTR5) (%)

[[record]]
molecule = "COC[C@H]1OC(OCc2ccc(-c3ccccc3)cc2)[C@H](NC(=O)CCCNC(=N)N)[C@@H](OCc2ccc3ccccc3c2)[C@@H]1O (stereo partly shown) [Compound 107]"
test_target = "Human SST5 somatostatin receptor (SSTR5) (Homo sapiens)"
reported_value = 83

[[record]]
molecule = "COC1C(O)C(COCc2ccc3ccccc3c2)OC(OCCc2ccccc2)C1NC(=O)CCCN (stereo not shown) [Compound 140]"
test_target = "Human SST5 somatostatin receptor (SSTR5) (Homo sapiens)"
reported_value = 78

[[record]]
molecule = "COC[C@H]1OC(OCc2ccccc2)[C@H](NC(=O)CCNC(=N)N)[C@H](OCc2ccc(-c3ccccc3)cc2)[C@@H]1O (stereo partly shown) [Compound 87]"
test_target = "Human SST5 somatostatin receptor (SSTR5) (Homo sapiens)"
reported_value = 86

[[record]]
molecule = "COC[C@H]1OC(OCc2ccc(Cl)cc2)[C@H](NC(=O)CCCN)[C@H](OCc2ccc(-c3ccccc3)cc2)[C@@H]1O (stereo partly shown) [Compound 27]"
test_target = "Human SST5 somatostatin receptor (SSTR5) (Homo sapiens)"
reported_value = 96


---

test: Solubility of salts of compound 1; assay type: physicochemical; details: Water, overnight
Structures can show the parent of a compound that is named as a salt.
TEST READOUT: Solubility in Water (µg/mL)

Worked examples follow.
[[record]]
compound = "COC[C@H]1O[C@H](OCCc2ccccc2)[C@H](NC(=O)CCCN)[C@@H](OCc2ccc3ccccc3c2)[C@@H]1O [Acetate]"
reported_value = 6960

[[record]]
compound = "COC[C@H]1O[C@H](OCCc2ccccc2)[C@H](NC(=O)CCCN)[C@@H](OCc2ccc3ccccc3c2)[C@@H]1O [Succinate]"
reported_value = 8520

[[record]]
compound = "COC[C@H]1O[C@H](OCCc2ccccc2)[C@H](NC(=O)CCCN)[C@@H](OCc2ccc3ccccc3c2)[C@@H]1O [TFA]"
reported_value = 3640

[[record]]
compound = "COC[C@H]1O[C@H](OCCc2ccccc2)[C@H](NC(=O)CCCN)[C@@H](OCc2ccc3ccccc3c2)[C@@H]1O [Methanesulphonate]"
reported_value = 5170


[P] COC[C@H]1O[C@H](OCCc2ccccc2)[C@H](NC(=O)CCCN)[C@@H](OCc2ccc3ccccc3c2)[C@@H]1O [Hydrochloride]
[Q] COC[C@H]1O[C@H](OCCc2ccccc2)[C@H](NC(=O)CCCN)[C@@H](OCc2ccc3ccccc3c2)[C@@H]1O [Citrate]
*Q* Lab note: check whether P or Q shows the higher recorded Solubility in Water. Which one? Tell me its label.
*A* P
(P: 7870 µg/mL, Q: 4540 µg/mL)

---

Test: in vitro
Details: human, Caco-2
Procedure: The Caco-2 assay was performed according to the procedure described in the following cited article [Caco-2 Monolayers in Experimental and Theoretical Predictions of Drug Transport, Artursson P, Palm K, Luthman K., Adv. Drug Deliv. Rev., 2001, 46, 27-43].
TEST READOUT: Papp (×10⁻⁶ cm/s)

[[record]]
compound = "OC[C@@H](O)[C@@H](O)[C@H](O)[C@H](O)CO [mannitol, reference compound]"
test_readout = "Papp"
reported_value = 0.813

[[record]]
compound = "COC[C@H]1O[C@H](OCCc2ccccc2)[C@H](NC(=O)CCCN)[C@@H](OCc2ccc3ccccc3c2)[C@@H]1O"
test_readout = "Papp"
reported_value = 1.04


---

molecular target: Human SST5 somatostatin receptor (SSTR5) (Homo sapiens); construct: expressed in transfected cells; host or cells: HEK-293 EBNA; assay: Filter plate assay for SST5 receptor, displacement of [125I]SST-14; format: binding; settings: 0.5 uM
TEST READOUT: SSTR5 Inhib 0.5 uM % (inhibition of binding of SST-14 to SSTR5) (%)

Worked examples follow.
[[record]]
compound = "COC[C@H]1OC(OCc2ccccc2)[C@H](NC(=O)CCN)[C@H](OCc2ccccc2)[C@@H]1O (stereo partly drawn)"
reported_value = 34

[[record]]
compound = "COC[C@H]1OC(OCc2ccc(Cl)cc2)[C@H](NC(=O)CCCN)[C@@H](OCc2ccc3ccccc3c2)[C@@H]1O (stereo partly drawn) [Compound 48]"
reported_value = 66

[[record]]
compound = "COC[C@H]1OC(OCc2ccccc2)[C@H](NC(=O)CCCNC(=N)N)[C@H](OCc2ccc(Cl)cc2)[C@@H]1O (stereo partly drawn)"
reported_value = 39

[[record]]
compound = "CSC1O[C@H](COCc2ccc(-c3ccccc3)cc2)[C@@H](O)[C@@H](OCc2ccc(Cl)cc2)[C@H]1NC(=O)CCCN (stereo partly drawn)"
reported_value = 38

[[record]]
compound = "COC[C@H]1OC(OCc2ccc(Cl)cc2)[C@H](NC(=O)CCCNC(=N)N)[C@@H](OCc2ccc(Cl)cc2)[C@@H]1O (stereo partly drawn)"
reported_value = 57

[[record]]
compound = "COC[C@H]1OC(OCc2ccc3ccccc3c2)[C@H](NC(=O)CCNC(=N)N)[C@@H](OCc2ccccc2)[C@@H]1O (stereo partly drawn)"
reported_value = 29


[I] COC[C@H]1OC(OCc2ccccc2)[C@H](NC(=O)CCCN)[C@H](OCc2ccccc2)[C@@H]1O (stereo partly drawn)
[II] COC[C@H]1OC(OCCc2ccccc2)[C@H](NC(=O)CCCN)[C@@H](OCc2ccc3ccccc3c2)[C@@H]1O (stereo partly drawn) [Compound 73]
[III] COC[C@H]1OC(OCc2ccccc2)[C@H](NC(=O)CCN)[C@H](OCc2ccc3ccccc3c2)[C@@H]1O (stereo partly drawn) [Compound 37]
*Q* # ascending order, key=SSTR5 Inhib 0.5 uM % (inhibition of binding of SST-14 to SSTR5) Please list the labels in the order you were asked to rank them.
*A* I, II, III

[P] COC[C@H]1OC(OCc2ccccc2)[C@H](NC(=O)CCCNC(=N)N)[C@H](OCc2ccc3ccccc3c2)[C@@H]1O (stereo partly drawn)
[Q] COC[C@H]1OC(OCc2ccc(Cl)cc2)[C@H](NC(=O)CCCN)[C@@H](OCc2ccccc2)[C@@H]1O (stereo partly drawn)
*Q* Lab note: check whether P or Q shows the higher recorded SSTR5 Inhib 0.5 uM % (inhibition of binding of SST-14 to SSTR5). Which one? Tell me its label.
*A* P

[P] COC[C@H]1OC(OCc2ccc3ccccc3c2)[C@H](NC(=O)CCCN)[C@@H](OCc2ccccc2)[C@@H]1O (stereo partly drawn)
[Q] COC[C@H]1OC(OCCc2ccccc2)[C@H](NC(=O)CCCN)[C@H](OCc2ccc3ccccc3c2)[C@@H]1O (stereo partly drawn)
[R] COC[C@H]1OC(OCc2ccc(Cl)cc2)[C@H](NC(=O)CNC(=N)N)[C@H](OCc2ccc3ccccc3c2)[C@@H]1O (stereo partly drawn)
*Q* # ascending order, key=SSTR5 Inhib 0.5 uM % (inhibition of binding of SST-14 to SSTR5) Please list the labels in the order you were asked to rank them.
*A* R, P, Q
(R: 31%, P: 46%, Q: 70%)
